The measurements presented in this section are drawn from ChEMBL document CHEMBL1131358.

Tested on: Trypanosoma brucei brucei
Experiment: In vitro activity against bloodstream from trypomastigotes.
Assay type: functional, organism-based
pIC50: −log10 of the molar value.

| substance smiles | pIC50 |
| --- | --- |
| Nc1nc(N)nc(NCCCNCCCCCCCNCCCNc2nc(N)nc(N)n2)n1 | 3.96 |
| Nc1nc(N)nc(NCCCNCCCNCCCCCCCNCCCNCCCNc2nc(N)nc(N)n2)n1 | 4.62 |
| N=C(N)c1ccc(/N=N/Nc2ccc(C(=N)N)cc2)cc1 | 8.52 |
| NCCCNCCCCCCCNCCCNc1nc(N)nc(N)n1 | 4.68 |

----------
Tested on: Trypanosoma brucei
Assay: Inhibitory activity against adenosine uptake through P2 adenosine transporter of blood stream Trypanosoma brucei trypomastigotes at the concentration 1 ug/mL

| compound | inhibition [%] |
| --- | --- |
| NCCCCN(CCCN)c1nc(N)nc(N)n1 | 29 |
| NCCCNCCCCN(CCCN)c1nc(N)nc(N)n1 | 24 |
| NCCCNCCCCCCCNCCCNc1nc(N)nc(N)n1 | 12 |
| Nc1[nH]cnc2ncnc1-2 | 88 |
| NCCCCN(CCCN)CCCNc1nc(N)nc(N)n1 | 7 |
| NCCCNCCCCN(CCCN)CCCNc1nc(N)nc(N)n1 | 2 |
| N=C(N)c1ccc(/N=N/Nc2ccc(C(=N)N)cc2)cc1 [DIMINAZENE] | 67 |
| Nc1nc(N)nc(NCCCNCCCNCCCCCCCNCCCNCCCNc2nc(N)nc(N)n2)n1 | 0 |
| Nc1nc(N)nc(NCCCNCCCCCCCNCCCNc2nc(N)nc(N)n2)n1 | 36 |
